This collection of values is drawn from patent US20130029983A1.

- system: K18PL tau (Homo sapiens, UniProt P10636, P618L)
- Construct: (K18PL; amino acids 244-369); made in house
- Sequence (P10636 561-686 P618L): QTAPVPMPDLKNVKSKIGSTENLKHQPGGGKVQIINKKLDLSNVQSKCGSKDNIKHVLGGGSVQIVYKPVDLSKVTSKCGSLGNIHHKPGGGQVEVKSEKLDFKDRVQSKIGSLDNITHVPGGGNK
- assay-details: Heparin-induced K18PL tau fibrillization assay monitored by ThT fluorescence
- Format: biochemical
- condition-set: Table 4; highest tested concentration (80 μM)
Record form. Attribute: Tau ThT Assay % Inhib.. Fill in for each entry.
Your answer should be a plain number; it is taken to be in %.

Lookup: Give recorded Tau ThT Assay % Inhib.. Nc1scc2c(-c3ccccc3)nn(-c3ccc(Cl)cc3)c(=O)c12
Found: 85

Lookup: Give recorded Tau ThT Assay % Inhib.. CCOC(=O)c1nn(-c2ccc(C(C)C)cc2)c(=O)c2c(N)scc12
Found: 8

Lookup: Give recorded Tau ThT Assay % Inhib.. CCOC(=O)c1nn(-c2ccc(C)cc2C)c(=O)c2c(N)scc12
Found: 87

Lookup: Give recorded Tau ThT Assay % Inhib.. Cc1nn(-c2ccc(Cl)cc2)c(=O)c2c(N)scc12
Found: 87

Lookup: Give recorded Tau ThT Assay % Inhib.. CCOC(=O)c1nn(-c2cccc(Cl)c2)c(=O)c2c(N)scc12
Found: 90

---

- system: Aβ(1-42) (Homo sapiens, UniProt P05067)
- Construct: Synthetic Aβ(1-42) peptide (rPeptide); purchased rPeptide
- Sequence (P05067 672-713 limits assumed): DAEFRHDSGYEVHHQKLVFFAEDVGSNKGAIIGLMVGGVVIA
- assay-details: Aβ(1-42) fibrillization assay (ThT)
- Assay type: biochemical
- condition-set: Table 3; highest tested concentration (80 μM); read-out: Aβ42 ThT Assay % Inhib.
Record form. Attribute: inhibition at 80 µM. Fill in for each entry.
Your answer should be a plain number; it is taken to be in %.

Lookup: Give recorded inhibition at 80 µM. CCOC(=O)c1nn(-c2ccccc2)c(=O)c2c(N)sc(C)c12
Found: 21

Lookup: Give recorded inhibition at 80 µM. COC(=O)c1nn(-c2ccc(F)cc2)c(=O)c2c(N)scc12
Found: 29

Lookup: Give recorded inhibition at 80 µM. CCOC(=O)c1ccc(-n2nc(C(=O)OCC)c3csc(N)c3c2=O)cc1
Found: 4

Lookup: Give recorded inhibition at 80 µM. CCOC(=O)c1nn(-c2ccc(C)cc2)c(=O)c2c(N)scc12
Found: 12

Lookup: Give recorded inhibition at 80 µM. Nc1scc2c(C(=O)N3CCOCC3)nn(-c3ccccc3)c(=O)c12
Found: 0

Lookup: Give recorded inhibition at 80 µM. CCOC(=O)c1nn(-c2ccc(C)c(C)c2)c(=O)c2c(N)scc12
Found: 7

Lookup: Give recorded inhibition at 80 µM. Nc1scc2c(CO)nn(-c3ccccc3)c(=O)c12
Found: 10

Lookup: Give recorded inhibition at 80 µM. NC(=O)c1nn(-c2ccccc2)c(=O)c2c(N)scc12
Found: 16

Lookup: Give recorded inhibition at 80 µM. CC(=O)Nc1sc(C)c2cnn(-c3ccccc3)c(=O)c12
Found: -11

---

- system: K18PL tau (Homo sapiens, UniProt P10636, P618L)
- Construct: (K18PL; amino acids 244-369); made in house
- assay-details: K18PL tau centrifugation (sedimentation) assay, SDS-PAGE densitometry
- Type: biochemical
- condition-set: SDS-PAGE of soluble and insoluble fractions after centrifugation; read-out: K18PL Sed. Assay, maximal percent inhibition of K18PL fibrillization
Record form. Attribute: Emax. Fill in for each entry.
Your answer should be a plain number; it is taken to be in %.

Lookup: Give measured Emax for CCOC(=O)c1nn(-c2ccc(Cl)cc2)c(=O)c2c(N)scc12 (K18PL tau (Homo sapiens, UniProt P10636, P618L)).
Found: 70

Lookup: Give measured Emax for CCNC(=O)c1nn(-c2ccc(Cl)cc2)c(=O)c2c(N)scc12 (K18PL tau (Homo sapiens, UniProt P10636, P618L)).
Found: 94

Lookup: Give measured Emax for CCN(C)C(=O)c1nn(-c2ccc(Cl)cc2)c(=O)c2c(N)scc12 (K18PL tau (Homo sapiens, UniProt P10636, P618L)).
Found: 62

Lookup: Give measured Emax for CNC(=O)c1nn(-c2ccc(Cl)cc2)c(=O)c2c(N)scc12 (K18PL tau (Homo sapiens, UniProt P10636, P618L)).
Found: 68

---

- system: K18PL tau (Homo sapiens, UniProt P10636, P618L)
- Construct: (K18PL; amino acids 244-369); made in house
- assay-details: Heparin-induced K18PL tau fibrillization assay monitored by ThT fluorescence
- Assay type: biochemical
- condition-set: Table 3; logarithm of IC50, K18PL tau ThT fluorescence inhibition; NC = not calculated due to insufficient activity; read-out: Tau ThT Assay Log IC50 (converted)
reported-endpoint: log10 IC50 (log10 of the value in µM)
Scale type: logarithmic (base 10). Underlying IC50 unit: µM.

Lookup: Give recorded log10 IC50. Nc1scc2c(C(=O)N3CCOCC3)nn(-c3ccccc3)c(=O)c12
Found: 1.20

Lookup: Give recorded log10 IC50. Nc1nn(-c2ccccc2)c(=O)c2c(N)scc12
Found: 0.80

Lookup: Give recorded log10 IC50. CCOC(=O)c1nn(-c2ccc(C)cc2)c(=O)c2c(N)scc12
Found: 2.10

Lookup: Give recorded log10 IC50. CCOC(=O)c1nn(-c2ccc(Cl)cc2)c(=O)c2c(N)scc12
Found: 0.60

Lookup: Give recorded log10 IC50. COc1ccc(-n2nc(C(=O)O)c3csc(N)c3c2=O)cc1
Found: 0.40

Lookup: Give recorded log10 IC50. NC(=O)c1nn(-c2ccccc2)c(=O)c2c(N)scc12
Found: 0.80

Lookup: Give recorded log10 IC50. CCOC(=O)c1nn(-c2ccc(OC)cc2)c(=O)c2c(N)scc12
Found: 0.70

Lookup: Give recorded log10 IC50. COC(=O)c1nn(-c2cccc(C(F)(F)F)c2)c(=O)c2c(N)scc12
Found: 1.00

Lookup: Give recorded log10 IC50. Nc1scc2c(C(=O)NCc3ccccc3)nn(-c3ccccc3)c(=O)c12
Found: 0.90

Lookup: Give recorded log10 IC50. Nc1scc2c(C(=O)O)nn(-c3ccccc3)c(=O)c12
Found: 0.90

Lookup: Give recorded log10 IC50. COC(=O)c1nn(-c2ccc(F)cc2)c(=O)c2c(N)scc12
Found: 0.70

Lookup: Give recorded log10 IC50. Nc1scc2c(CO)nn(-c3ccccc3)c(=O)c12
Found: 0.80

Lookup: Give recorded log10 IC50. CCN(CC)C(=O)c1nn(-c2ccc(OC)cc2)c(=O)c2c(N)scc12
Found: 1.00

---

Record form. Attribute: melting point. Fill in for each entry.

Lookup: Give recorded melting point. CCOC(=O)c1ccccc1-n1nc(C(=O)OCC)c2csc(N)c2c1=O [CNDR-51419]
Found: 176 to 178 °C

Lookup: Give recorded melting point. CCOC(=O)c1nn(-c2ccccc2Br)c(=O)c2c(N)scc12 [CNDR-51421]
Found: 203 to 205 °C

Lookup: Give recorded melting point. CCOC(=O)c1nn(-c2ccc(Br)cc2)c(=O)c2c(N)scc12 [CNDR-51386]
Found: 198 to 200 °C

---

- assay-details: Full PK analysis and oral administration, brain and plasma levels
- Format: in vivo, mice
- condition-set: mouse, plasma, iv, 2 mg/kg; full PK analysis, FIG. 6A; read-out: Elimination half-life in plasma (converted)
reported-endpoint: half-life

Lookup: Give recorded half-life. Nc1scc2c(C(=O)NC3CC3)nn(-c3ccc(Cl)cc3)c(=O)c12
Found: ~7.4 h

---

Record form. Attribute: Tau ThT Assay Log IC50. Fill in for each entry.
- system: K18PL tau (Homo sapiens, UniProt P10636, P618L)
- Construct: (K18PL; amino acids 244-369); made in house
- assay-details: Heparin-induced K18PL tau fibrillization assay monitored by ThT fluorescence
- Format: biochemical
- condition-set: Table 4; logarithm of IC50, K18PL tau ThT fluorescence inhibition
# output: bare number, no unit

Lookup: Give recorded Tau ThT Assay Log IC50. Nc1scc2c(C(=O)O)nn(-c3ccc(F)cc3)c(=O)c12 [CNDR-51395]
Found: −5.7

Lookup: Give recorded Tau ThT Assay Log IC50. Nc1scc2c(C(=O)O)nn(-c3ccc(O)cc3)c(=O)c12 [CNDR-51374]
Found: −5.4

Lookup: Give recorded Tau ThT Assay Log IC50. CC(C)NC(=O)c1nn(-c2ccc(F)cc2)c(=O)c2c(N)scc12 [CNDR-51396]
Found: −5.8

Lookup: Give recorded Tau ThT Assay Log IC50. CCOC(=O)c1nn(-c2ccc(C)cc2C)c(=O)c2c(N)scc12 [CNDR-51434]
Found: −5.7

Lookup: Give recorded Tau ThT Assay Log IC50. CCOC(=O)c1nn(-c2ccc(Cl)cc2)c(=O)c2c(N)sc(Br)c12 [CNDR-51411]
Found: −5.4

Lookup: Give recorded Tau ThT Assay Log IC50. CC(C)NC(=O)c1nn(-c2ccc(O)cc2)c(=O)c2c(N)scc12 [CNDR-51376]
Found: −4.8

Lookup: Give recorded Tau ThT Assay Log IC50. Cc1nn(-c2ccc(Cl)cc2)c(=O)c2c(N)scc12 [CNDR-51400]
Found: −5.9

Lookup: Give recorded Tau ThT Assay Log IC50. CCOC(=O)c1nn(-c2cccc(Cl)c2)c(=O)c2c(N)scc12 [CNDR-51387]
Found: −5.7

Lookup: Give recorded Tau ThT Assay Log IC50. Nc1scc2c(-c3ccccc3)nn(-c3ccc(Cl)cc3)c(=O)c12 [CNDR-51405]
Found: −6.0

Lookup: Give recorded Tau ThT Assay Log IC50. CCOC(=O)c1nn(-c2ccc(Cl)cc2)c(=O)c2c(N)sc(Cl)c12 [CNDR-51393]
Found: −5.7

Lookup: Give recorded Tau ThT Assay Log IC50. CCOC(=O)c1nn(-c2ccc(F)cc2)c(=O)c2c(N)scc12 [CNDR-51394]
Found: −6.0

Lookup: Give recorded Tau ThT Assay Log IC50. Nc1scc2c(C(=O)O)nn(-c3cccc(Cl)c3)c(=O)c12 [CNDR-51388]
Found: −5.8

Lookup: Give recorded Tau ThT Assay Log IC50. Nc1scc2c(C(=O)NC3CC3)nn(-c3ccc(F)cc3)c(=O)c12 [CNDR-51397]
Found: −5.6

Lookup: Give recorded Tau ThT Assay Log IC50. CCOC(=O)c1nn(-c2ccc(O)cc2)c(=O)c2c(N)scc12 [CNDR-51363]
Found: −5.3
